System: mice
measurement.notes: Acute toxicity after oral administration of a single dose
Type: in vivo
recorded.conditions: mouse, oral single dose 250 mg/kg, observation time 7 days
Quick reference for animals died among some compounds

# annotated cases, reported animals died shown
structure.as.smiles | target.entity | result
CCN(CC)CCSc1ncnc2c(N3CC[S+]([O-])CC3)nc(N3CCNCC3)nc12 | mice | 0 out of 5 animals
CN(Cc1ccccc1)c1ncnc2c(N3CC[S+]([O-])CC3)nc(N3CCNCC3)nc12 | mice | 0 out of 5 animals
[O-][S+]1CCN(c2nc(N3CCNCC3)nc3c(NCc4ccccc4)ncnc23)CC1 | mice | 0 out of 5 animals
CN1CCN(c2nc(N3CC[S+]([O-])CC3)c3ncnc(SCc4ccccc4)c3n2)CC1 | mice | 0 out of 5 animals
CN(Cc1ccccc1)c1ncnc2c(N3CC[S+]([O-])CC3)nc(N3CCN(C=O)CC3)nc12 | mice | 1 out of 5 animals
[O-][S+]1CCN(c2nc(N3CCNCC3)nc3c(SCCO)ncnc23)CC1 | mice | 0 out of 5 animals
[O-][S+]1CCN(c2nc(N3CCNCC3)nc3c(Nc4ccccc4)ncnc23)CC1 | mice | 1 out of 5 animals
[O-][S+]1CCN(c2nc(N3CCN(CCO)CC3)nc3c(SCc4ccccc4)ncnc23)CC1 | mice | 0 out of 5 animals

From here, focus on the item given below.
Ask: Query the reported animals died for mice; item: c1ccc(CNc2ncnc3c(N4CCSCC4)nc(N4CCNCC4)nc23)cc1
Reply: 0 out of 5 animals
